Test system: Female Balb/c mice
Experiment: Adjuvanticity of lipids: serum anti-KLH IgA, IgG, IgM ELISA (Example 7)
Type: in vivo
Conditions: serum day 7 after booster; control KLH + Saline = 1
EXPERIMENTAL_ENDPOINT: Day 7 Results IgG, score as multiples of the control response
Form field (numeric): enter value without unit.

Known results for compounds:
CCCCCCCCCCCCCCC(=O)OC[C@H](COP(=O)([O-])OCC[N+](C)(C)C)OC(=O)CCCCCCCCCCCCCC
5
CCCCCCCCCCCCCC(=O)OC[C@H](COP(=O)(O)O)OC(=O)CCCCCCCCCCCCC
5
CCCCCCCCCCCCCCCCCC(=O)OCC(COC(=O)CCCCCCCCCCCCCCC)OC(=O)CCCCCCCCCCCCCCCCC (racemic)
7
CCCCCCCCCCCCCC(=O)OC[C@H](COP(=O)(O)OCCN)OC(=O)CCCCCCCCCCCCC
7

Value lookup for Day 7 Results IgG, score as multiples of the control response; key = CCCCCCCCCCCCC/C=C/[C@@H](O)[C@H](CO)NC(=O)CCCCCCCCCCCCCCC
3

And for CCCCCCCCCCCCCCC(=O)OCC(COC(=O)CCCCCCCCCCCCCC)OC(=O)CCCCCCCCCCCCCC ?
4
